- assay remarks: Log P by HPLC on reversed phase columns, method [a] (acidic range, 0.1% formic acid)
- test context: logP, HPLC on reversed phase columns, method [a]: acidic range
We label by threshold. Values of chromatographic logP strictly beneath 3 are 1. Values of 3 and up are 0.

> print(dat)
                                  mol.smiles  group
 1      CCn1nccc1-c1ccccc1Nc1cnc2c(F)cccc2c1      1
 2     C=C(C)c1ccnn1-c1ccccc1Nc1cnc2ccccc2c1      1
 3  CC(C)(C)[Si](C)(C)OCc1ccnn1-c1ccccc1Nc1cnc2ccccc2c1      0
 4      Cc1nc2ccccc2nc1Nc1cccc(F)c1-c1ccnn1C      1
 5    COC(=O)c1ccnn1-c1ccccc1Nc1cnc2ccccc2c1      1
 6   CC(C)(O)c1ccnn1-c1ccccc1Nc1cnc2ccccc2c1      1
 7  Fc1cccc2cc(Nc3ccccc3-c3ccnn3Cc3ccccc3)cnc12      0
 8  Cc1nc2c(F)c(F)ccc2cc1N(C)c1ccccc1-c1ccn(C(C)C)n1      0
 9  COC(=O)c1ccn(-c2ccccc2Nc2cnc3ccccc3c2)n1      1
10  Cc1nc2c(F)c(F)ccc2cc1Nc1ccccc1-c1ccn(C(C)C)n1      0

====

- Tested on: Botrytis cinerea
- assay remarks: Example H: comparative data, in vivo preventive test on Botrytis cinerea (grey mould), gherkin
- test context: rate of application 500 ppm, evaluated 4 to 5 days after inoculation
Examples of compounds with documented Efficacy in % follow.
measured property: Efficacy in % (%)

> print(dat)
                                   compound  quantitative.readout
1  CC(C)n1ccc(-c2c(F)cccc2Nc2cnc3ccccc3c2)n1 [Example I-067]                    95
2  C=C(C)c1ccnn1-c1ccccc1Nc1cnc2ccccc2c1 [Example I-066]                    98
3  CC(C)n1ccc(-c2c(F)cccc2Oc2cnc3ccccc3c2)n1 [drawing 47, reference compound]                    68
4  C=C(C)c1ccnn1-c1ccccc1Oc1cnc2ccccc2c1 [drawing 46, reference compound]                    20

====

- assay remarks: Log P by HPLC on reversed phase columns, method [a] (acidic range, 0.1% formic acid)
- test context: LogP, method [a] / Method A: LC-UV, acidic range
Examples of compounds with documented chromatographic logP follow.
measured property: chromatographic logP

> print(dat)
                                 mol.smiles  quantitative.readout
1             CC(C)(C)n1nccc1-c1c(F)cccc1Br                  3.61
2  CC(C)(C)[Si](C)(C)OCc1ccnn1-c1ccccc1Nc1cnc2ccccc2c1                  4.92
3  C=C(C)c1ccnn1-c1ccccc1N(C(=O)OC(C)(C)C)c1cnc2ccccc2c1                  3.67
4  CC(C)(C)OC(=O)N(c1cnc2ccccc2c1)c1cccc(F)c1-n1nccc1C(=O)O                  2.62
5  Cc1nc2c(F)c(F)ccc2cc1N(C)c1ccccc1-c1ccn(C(C)C)n1                  4.36
6  COC(=O)c1ccnn1-c1c(F)cccc1N(C(=O)OC(C)(C)C)c1cnc2ccccc2c1                  3.36
7  CC(C)(C)OC(=O)N(c1cnc2ccccc2c1)c1ccccc1-n1nccc1CO[Si](C)(C)C(C)(C)C                  5.84
8      CCn1nccc1-c1ccccc1Nc1cnc2c(F)cccc2c1                  2.82
9  Cc1nc2c(F)c(F)ccc2cc1Nc1cccc(F)c1-c1ccnn1C                  3.07
